Assign Peptide Concentration-induced 50 % ANTS/DPX leakage at pH 4.8 (L/P), 3POPC/1POPG Vesicle to each entry below.
- Assay Protocol: ANTS/DPX liposome leakage assay
- Test Conditions: 0.5 mM vesicles, peptide 0-20 µM, 3 h incubation, HCl-adjusted PBS 1X pH 4.8; lipid per peptide
Peptide text beside a SMILES is read from it.
Give bare numbers, in L/P.

- Compound: "CC(C)C[C@H](NC(=O)CN)C(=O)N[C@@H](CC(C)C)C(=O)N[C@@H](CCCCN)C(=O)N[C@@H](CC(C)C)C(=O)N[C@@H](CC(C)C)C(=O)N[C@@H](CCC(=O)O)C(=O)N[C@@H](CC(C)C)C(=O)N[C@@H](CC(C)C)C(=O)N[C@@H](CC(C)C)C(=O)N[C@@H](CCC(=O)O)C(=O)N[C@@H](C)C(=O)N[C@@H](C)C(=O)NCC(=O)N[C@@H](Cc1c[nH]c2ccccc12)C(N)=O [KEE] (H-GLLKLLELLLEAAGW-NH2)"
  Measure Unit: "L/P"
  Quantitative Readout: 108
- Compound: "CC(C)C[C@H](NC(=O)CN)C(=O)N[C@@H](CC(C)C)C(=O)N[C@@H](Cc1c[nH]cn1)C(=O)N[C@@H](CC(C)C)C(=O)N[C@@H](CC(C)C)C(=O)N[C@@H](Cc1c[nH]cn1)C(=O)N[C@@H](CC(C)C)C(=O)N[C@@H](CC(C)C)C(=O)N[C@@H](CC(C)C)C(=O)N[C@@H](Cc1c[nH]cn1)C(=O)N[C@@H](C)C(=O)N[C@@H](C)C(=O)NCC(=O)N[C@@H](Cc1c[nH]c2ccccc12)C(N)=O [HHH] (H-GLLHLLHLLLHAAGW-NH2)"
  Measure Unit: "L/P"
  Quantitative Readout: 50

Kindly consider the entry below.
Ask | What value of Peptide Concentration-induced 50 % ANTS/DPX leakage at pH 4.8 (L/P), 3POPC/1POPG Vesicle has been reported for the following compound? CC(C)C[C@H](NC(=O)CN)C(=O)N[C@@H](CC(C)C)C(=O)N[C@@H](CCCCN)C(=O)N[C@@H](CC(C)C)C(=O)N[C@@H](CC(C)C)C(=O)N[C@@H](Cc1c[nH]cn1)C(=O)N[C@@H](CC(C)C)C(=O)N[C@@H](CC(C)C)C(=O)N[C@@H](CC(C)C)C(=O)N[C@@H](CCCCN)C(=O)N[C@@H](C)C(=O)N[C@@H](C)C(=O)NCC(=O)N[C@@H](Cc1c[nH]c2ccccc12)C(N)=O [KHK] (H-GLLKLLHLLLKAAGW-NH2)
Reply | 53

Recorded values, source paper PMC9069370.
